# assayed.system: rh beta tryptase (Homo sapiens, UniProt Q15661)
# Sequence (Q15661 31-275): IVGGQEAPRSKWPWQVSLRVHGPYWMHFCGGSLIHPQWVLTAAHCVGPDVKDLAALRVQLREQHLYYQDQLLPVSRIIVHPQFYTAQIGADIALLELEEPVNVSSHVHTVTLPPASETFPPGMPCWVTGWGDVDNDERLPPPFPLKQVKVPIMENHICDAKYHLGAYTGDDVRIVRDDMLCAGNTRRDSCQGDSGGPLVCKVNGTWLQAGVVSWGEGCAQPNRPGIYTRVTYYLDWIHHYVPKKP
# experimental.details: tryptase inhibition test (cleavage of N-p-tosyl-Gly-Pro-Lys-para-nitroaniline, p-nitroaniline measured at 405 nm)
# condition.label: Tris HCl buffer pH 7.4 with calcium and heparin; substrate 0.6 mM; 5 minutes' pre-incubation, 5 minutes incubation at 37° C.
Structures can show the parent of a compound that is named as a salt.
reported.endpoint: IC50

• Cn1c(CCc2ccc(C(=N)N)cc2)nc2cc(N(Cc3cccc4ccccc34)C(=O)CNCc3cccc(C(=N)N)c3)ccc21 [Example 8] = 16 nM
• CN(CC(=O)N(Cc1cccc2ccccc12)c1ccc2c(c1)nc(CCc1ccc(C(=N)N)cc1)n2C)Cc1ccc(N2CCCC2)cc1 = 7.6 nM
• Cn1c(CCc2ccc(C(=N)N)cc2)nc2cc(N(Cc3cccc4ccccc34)C(=O)CCC3CCN(Cc4ccccc4)CC3)ccc21 = 14 nM
• Cn1c(CCc2ccc(C(=N)N)cc2)nc2cc(N(Cc3cccc4ccccc34)C(=O)CNCc3ccc(C(=N)N)cc3)ccc21 [Example 22, trihydrochloride] = 10 nM
• Cn1c(CCc2ccc(C(=N)N)cc2)nc2cc(N(Cc3ccc(N)cc3)C(=O)CNCc3ccc(N)cc3)ccc21 [Example 73, dihydrochloride] = 13.1 nM
• Cn1c(CCc2ccc(C(=N)N)cc2)nc2cc(N(Cc3cccc4ccccc34)C(=O)C=Cc3ccccn3)ccc21 = 39 nM
• Cn1c(CCc2ccc(C(=N)N)cc2)nc2cc(N(Cc3cccc4ccccc34)C(=O)CN3CCC[C@H]3C(N)=O)ccc21 = 58.4 nM
• CN(C)CCCCC(=O)N(Cc1cccc2ccccc12)c1ccc2c(c1)nc(CCc1ccc(C(=N)N)cc1)n2C = 33 nM
• Cn1c(CCc2ccc(C(=N)N)cc2)nc2cc(N(Cc3cccc4ccccc34)C(=O)CCCc3ccc(N)cc3)ccc21 = 12 nM
• Cn1c(CCc2ccc(C(=N)N)cc2)nc2cc(N(CCC(c3ccccc3)c3ccccc3)C(=O)CCc3ccc(C(=N)N)cc3)ccc21 = 16 nM
• Cn1c(CCc2ccc(C(=N)N)cc2)nc2cc(N(Cc3ccc4ccccc4c3)C(=O)CNCc3ccc([N+](=O)[O-])cc3)ccc21 [Example 53, hydrochloride] = 92 nM
• Cn1c(CCc2ccc(C(=N)N)cc2)nc2cc(N(Cc3ccccc3)C(=O)CCCCNC(=N)N)ccc21 [Example 34, dihydrochloride] = 43 nM
• Cn1c(CCc2ccc(C(=N)N)cc2)nc2cc(N(Cc3ccc4ccccc4c3)C(=O)CCC3CCN(Cc4ccccc4)CC3)ccc21 = 72 nM

---

A collection of molecules and their measured IC50
# assayed.system: rh beta tryptase (Homo sapiens, UniProt Q15661)
# experimental.details: tryptase inhibition test (cleavage of N-p-tosyl-Gly-Pro-Lys-para-nitroaniline, p-nitroaniline measured at 405 nm)
# condition.label: Tris HCl buffer pH 7.4 with calcium and heparin; substrate 0.6 mM; 5 minutes' pre-incubation, 5 minutes incubation at 37° C.
Structures can show the parent of a compound that is named as a salt.
reported.endpoint: IC50 (nM)

• CN(C)CCN(C)CC(=O)N(Cc1cccc2ccccc12)c1ccc2c(c1)nc(CCc1ccc(C(=N)N)cc1)n2C = 18
• Cn1c(CCc2ccc(C(=N)N)cc2)nc2cc(N(Cc3ccc4ccccc4c3)C(=O)CCc3ccc(C(=N)N)cc3)ccc21 [Example 9] = 24
• Cn1c(CCc2ccc(C(=N)N)cc2)nc2cc(N(Cc3ccccc3)C(=O)CCCNC(=N)N)ccc21 [Example 39, dihydrochloride] = 77
• Cn1c(CCc2ccc(C(=N)N)cc2)nc2cc(N(Cc3c4ccccc4cc4ccccc34)C(=O)CCC3CCN(Cc4ccccc4)CC3)ccc21 = 90.6
• CN(C)CCCNCC(=O)N(Cc1cccc2ccccc12)c1ccc2c(c1)nc(CCc1ccc(C(=N)N)cc1)n2C = 21.3
• Cn1c(CCc2ccc(C(=N)N)cc2)nc2cc(N(Cc3cccc4ccccc34)C(=O)CNCc3cccc(C(=N)N)c3)ccc21 [Example 46, trihydrochloride] = 27

---

# assayed.system: rh beta tryptase (Homo sapiens, UniProt Q15661)
# experimental.details: tryptase inhibition test (cleavage of N-p-tosyl-Gly-Pro-Lys-para-nitroaniline, p-nitroaniline measured at 405 nm)
# condition.label: Tris HCl buffer pH 7.4 with calcium and heparin; substrate 0.6 mM; 5 minutes' pre-incubation, 5 minutes incubation at 37° C.
pIC50: −log10 of the molar value. Structures can show the parent of a compound that is named as a salt.
A collection of compounds and their measured pIC50
reported.endpoint: pIC50

- Cn1c(CCc2ccc(C(=N)N)cc2)nc2cc(N(Cc3cccc4ccccc34)C(=O)CNCc3ccc(N4CCCC4)cc3)ccc21 [Example 82, dihydrochloride]: 8.31
- CN(C)CCNCC(=O)N(Cc1cccc2ccccc12)c1ccc2c(c1)nc(CCc1ccc(C(=N)N)cc1)n2C: 7.66
- Cn1c(CCc2ccc(C(=N)N)cc2)nc2cc(N(Cc3ccccc3)C(=O)CCc3ccc(C(=N)N)cc3)ccc21 [Example 12, dihydrochloride]: 7.52
- Cn1c(CCc2ccc(C(=N)N)cc2)nc2cc(N(Cc3ccncc3)C(=O)CNCc3ccc(N)cc3)ccc21 [Example 74, dihydrochloride]: 7.24
- CN(CC(=O)N(Cc1cccc2ccccc12)c1ccc2c(c1)nc(CCc1ccc(C(=N)N)cc1)n2C)Cc1cccc(C(=N)N)c1 [Example 18, trihydrochloride]: 7.92
- Cn1c(CCc2ccc(C(=N)N)cc2)nc2cc(N(Cc3cccc4ccccc34)C(=O)CO)ccc21: 6.96
